The measurements presented in this section are drawn from patent US10800741B2.

- Test system: H1581 (FGFR1 amp)
- experiment: In vitro growth inhibition of H1581 tumor cells (MTT/CCK8)
- Format: cell-based, Human
- condition label: Homo sapiens, NCI-H1581; in vitro growth inhibition (or induction of apoptosis), cells cultured 3 to 5 days, MTT (CCK8); read-out: IC50 H1581 (FGFR1 amp)
- From the text: Tumor cell lines are an effective model for studying in vitro tumor growth inhibition. In the present invention, a representative tumor cell line was selected to determine the cell growth inhibition activity of the present compound. All cell lines used were from ATCC, DSMZ, and cell banks of the Chinese Academy of Sciences. […] Adherent cells were digested with 0.25% trypsin-EDTA (Gibco). […] The supernatant was discarded and the cells were counted. […]
pIC50: −log10 of the molar value.
experimental endpoint: pIC50

Below are worked cases with known answers.
[
  {
    "molecule": "CC(=O)Nc1cc2c(Oc3ccc(NC(=O)Nc4cc(C(C)(C)C)n[nH]4)c(Cl)c3)ccnc2cc1OCCN1CCOCC1 [Compound 132]",
    "pIC50": 8.41
  },
  {
    "molecule": "COc1cc2nccc(Oc3ccc(NC(=O)Nc4cc(C(C)(C)C)nn4C)c(Cl)c3C)c2cc1C(N)=O [Compound 111]",
    "pIC50": 8.53
  },
  {
    "molecule": "COCCOc1cc2nccc(Oc3ccc(NC(=O)Nc4cc(C(C)(C)C)n[nH]4)c(C)c3)c2cc1NC(C)=O [Compound 133]",
    "pIC50": 8.09
  },
  {
    "molecule": "COc1cc2nccc(Oc3ccc(NC(=O)Nc4cc(C5CC5)n[nH]4)c(Cl)c3)c2cc1C(N)=O [Compound 41]",
    "pIC50": 6.35
  },
  {
    "molecule": "CC(C)(C)c1cc(NC(=O)Nc2ccc(Oc3ccnc4cc(OCCCN5CCOCC5)c(C(N)=O)cc34)cc2Cl)n(C2CCCC2)n1 [Compound 140]",
    "pIC50": 6.94
  },
  {
    "molecule": "COc1cc2nccc(Oc3ccc(NC(=O)Nc4cc(C(C)(C)C)nn4C)c(Cl)c3Cl)c2cc1C(N)=O [Compound 38]",
    "pIC50": 9.54
  }
]

1: COCCOc1cc2nccc(Oc3ccc(NC(=O)Nc4cc(C(C)(C)C)nn4C4CCN(C)CC4)c(Cl)c3)c2cc1NC(C)=O [Compound 126]
2: COCCOc1cc2nccc(Oc3ccc(NC(=O)Nc4cc(C(C)(C)C)nn4C)cc3Cl)c2cc1NC(C)=O [Compound 135]
3: COc1cc2nccc(Oc3ccc(NC(=O)Nc4cc(C(C)(C)C)n[nH]4)c(Cl)c3)c2cc1C(=O)N(C)C [Compound 61]
4: C=CC(=O)Nc1cc2c(Oc3ccc(NC(=O)Nc4cc(C(C)(C)C)on4)c(Cl)c3)ccnc2cc1OC [Compound 22]
5: CN1CCN(CCCOc2cc3nccc(Oc4ccc(NC(=O)Nc5cc(C(C)(C)C)n[nH]5)c(Cl)c4Cl)c3cc2C(N)=O)CC1 [Compound 95]
Hey, quick one: sort these by pIC50, low to high? To answer, arrange all of the labels according to the requested order.
3, 4, 2, 5, 1
